- Tested on: LXRb:RXRa (NR concentration 270 nM, RXRa partner concentration 90 nM)
- TEST_DETAILS: PBM binding z-score (relative to random genomic background probes); higher = stronger binding; sequences stand for … in GC…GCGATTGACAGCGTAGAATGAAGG
MEASURED_ATTRIBUTE: PBM binding z-score
The answer should be a number; do not append a unit.

[[record]]
query_sequence = "CGAACTAGGTCAAGGACAGTGAGTCTCCGCACGC"
readout_number = 0.891

[[record]]
query_sequence = "GCTTTTAGTTGAAAGGGCAACCGAATGATTCTCG"
readout_number = 0.53


For reference, reported PBM binding z-score for CCTAGCAGGCCACTCTGGGTCACTCAAGGCTTGA stands at 1.91

Kindly note the recorded PBM binding z-score for CCAGACAGGTGAGAAGGTAACGCAGCCTCGATTA , which is 0.115

The sequence CTTAGCAGGCCAATCTGGGTCACTCAAGGCTTGA showed PBM binding z-score equal to 0.386

What the record says about AGTCAAAGTTCAGAACGAGGTAACGTAAAGCACG : PBM binding z-score is 1.78

Looking up CCGACTGGGGCATAAGGTTACGATAAGCCAGCCC , I see its PBM binding z-score listed as 0.815

Notebook: TCTTGTATATCAAAGGTTAAGAAAGCCGAAGCCT , PBM binding z-score read as 2.13

Query AGTCAAAGTTCACTTGGTAACGTAAGATTCAGCT yields PBM binding z-score of 3.4
